tested on: UO-31; test: minimum viability across doses, drug + dasatinib, relative to DMSO (fraction); higher = less growth inhibition; conditions: treatment: drug + dasatinib (fixed dose, not stated); 5 days
outcome_measure: minimum viability across doses
Answer with the value's number alone.

These recorded examples may help you get a feel for the data.
COc1ccc2c(OCc3nnc4ccc(-c5ccccc5)nn34)ccnc2c1 [AMG-208] + Cc1nc(Nc2ncc(C(=O)Nc3c(C)cccc3Cl)s2)cc(N2CCN(CCO)CC2)n1	0.987
CCC(=O)N1CCN(c2ccc(-n3c(=O)ccc4cnc5ccc(-c6cnc7ccccc7c6)cc5c43)cc2C(F)(F)F)CC1 [Torin 1] + Cc1nc(Nc2ncc(C(=O)Nc3c(C)cccc3Cl)s2)cc(N2CCN(CCO)CC2)n1	0.00689
CCOc1ccn(-c2ccc(F)cc2)c(=O)c1C(=O)Nc1ccc(Oc2ccnc(N)c2Cl)c(F)c1 + Cc1nc(Nc2ncc(C(=O)Nc3c(C)cccc3Cl)s2)cc(N2CCN(CCO)CC2)n1	0.695
CCc1cccc(CC)c1NC(=O)N1Cc2[nH]nc(NC(=O)c3ccc(N4CCN(C)CC4)cc3)c2C1 + Cc1nc(Nc2ncc(C(=O)Nc3c(C)cccc3Cl)s2)cc(N2CCN(CCO)CC2)n1	0.31

## Task Can you look up the measured minimum viability across doses of Cc1ccc(NC(=O)c2ccc(CN3CCN(C)CC3)cc2)cc1Nc1nc(-c2cccnc2)cs1 [Masitinib (AB1010)] + Cc1nc(Nc2ncc(C(=O)Nc3c(C)cccc3Cl)s2)cc(N2CCN(CCO)CC2)n1 for me?
## Result 0.271

###

tested on: 769-P; experiment: GI50 of drug in presence of dasatinib; higher = less potent; conditions: treatment: drug + dasatinib (fixed dose, not stated); 5 days
# maps each entry to its GI50 of drug
State just the number; it will be interpreted in nM.

These recorded examples may help you get a feel for the data.
CCS(=O)(=O)c1cccc(-c2cc(C(=O)NC3CCN(C)CC3)c(C)c3[nH]c4ncc(C)cc4c23)c1 [TAK-901] + Cc1nc(Nc2ncc(C(=O)Nc3c(C)cccc3Cl)s2)cc(N2CCN(CCO)CC2)n1	4010
S=C(NCc1ccc2c(c1)OCO2)N1CCN(c2ncnc3c2oc2ccccc23)CC1 [Amuvatinib (MP-470)] + Cc1nc(Nc2ncc(C(=O)Nc3c(C)cccc3Cl)s2)cc(N2CCN(CCO)CC2)n1	1830

Switching to the query record.
## Task Can you look up the measured GI50 of drug of CN(C)C/C=C/C(=O)Nc1cc2c(Nc3ccc(F)c(Cl)c3)ncnc2cc1O[C@H]1CCOC1 [Afatinib (BIBW2992)] + Cc1nc(Nc2ncc(C(=O)Nc3c(C)cccc3Cl)s2)cc(N2CCN(CCO)CC2)n1 for me?
## Result 29.1

###

tested on: SN12C; assay: minimum viability across doses, drug + dasatinib, relative to DMSO (fraction); higher = less growth inhibition; conditions: treatment: drug + dasatinib (fixed dose, not stated); 5 days
# maps each entry to its minimum viability across doses
Answer with the value's number alone.

These recorded examples may help you get a feel for the data.
C[C@]1(O)C[C@@H](c2nc(-c3ccc4ccc(-c5ccccc5)nc4c3)c3c(N)nccn32)C1 [Linsitinib (OSI-906)] + Cc1nc(Nc2ncc(C(=O)Nc3c(C)cccc3Cl)s2)cc(N2CCN(CCO)CC2)n1	0.592
Cn1cc(-c2ccc3nnc(C(F)(F)c4ccc5ncccc5c4)n3n2)cn1 + Cc1nc(Nc2ncc(C(=O)Nc3c(C)cccc3Cl)s2)cc(N2CCN(CCO)CC2)n1	0.614
CN(C)CCOc1ccc(-c2nc(-c3ccncc3)c(-c3ccc4c(c3)CC/C4=N/O)[nH]2)cc1 + Cc1nc(Nc2ncc(C(=O)Nc3c(C)cccc3Cl)s2)cc(N2CCN(CCO)CC2)n1	0.476

Switching to the query record.
## Task Can you look up the measured minimum viability across doses of CN[C@@H]1C[C@H]2O[C@@](C)([C@@H]1OC)n1c3ccccc3c3c4c(c5c6ccccc6n2c5c31)C(=O)NC4 [Staurosporine] + Cc1nc(Nc2ncc(C(=O)Nc3c(C)cccc3Cl)s2)cc(N2CCN(CCO)CC2)n1 for me?
## Result 0.00331

###

# maps each entry to its GI50 of drug
test system: UO-31; assay: GI50 of drug in presence of dasatinib; higher = less potent; conditions: treatment: drug + dasatinib (fixed dose, not stated); 5 days
State just the number; it will be interpreted in nM.

These recorded examples may help you get a feel for the data.
CC(C)n1nc(-c2cc3cc(O)ccc3[nH]2)c2c(N)ncnc21 [PP242] + Cc1nc(Nc2ncc(C(=O)Nc3c(C)cccc3Cl)s2)cc(N2CCN(CCO)CC2)n1	1140
CC(C)n1nc(-c2ccc3oc(N)nc3c2)c2c(N)ncnc21 [INK 128] + Cc1nc(Nc2ncc(C(=O)Nc3c(C)cccc3Cl)s2)cc(N2CCN(CCO)CC2)n1	13.8

Switching to the query record.
## Task Can you look up the measured GI50 of drug of Cc1ccc(C(=O)Nc2cccc(C(F)(F)F)c2)cc1Nc1nc(-c2cccnc2)nc2c1cnn2C [NVP-BHG712] + Cc1nc(Nc2ncc(C(=O)Nc3c(C)cccc3Cl)s2)cc(N2CCN(CCO)CC2)n1 for me?
## Result 3110

###

# maps each entry to its minimum viability across doses
test system: 769-P; experiment: minimum viability across doses, drug alone, relative to DMSO (fraction); higher = less growth inhibition; conditions: treatment: drug alone; 5 days
Answer with the value's number alone.

These recorded examples may help you get a feel for the data.
CC(=O)Nc1nc(C)c(-c2ccc(Cl)c(S(=O)(=O)NCCO)c2)s1	0.565
COc1ccc(S(=O)(=O)N(C(C)=O)c2ccccc2/C=C/c2cc[n+]([O-])cc2)cc1	0.0968
COC(=O)Nc1ccc(-c2nc(N3CCOCC3)c3cnn(C4CCN(Cc5cccnc5)CC4)c3n2)cc1	0.184
Cn1cnc(-c2cc3nccc(Oc4ccc(NC(=S)NC(=O)Cc5ccccc5)cc4F)c3s2)c1	0.898
COc1cc(Nc2ncc(F)c(Nc3ccc4c(n3)N(COP(=O)([O-])[O-])C(=O)C(C)(C)O4)n2)cc(OC)c1OC.[Na+].[Na+]	0.119
CNC(=O)c1ccc(-c2cnc3ncc(Cc4ccc5ncccc5c4)n3n2)cc1F	0.916

## Task Can you look up the measured minimum viability across doses of CCO.N#CC(=C(/N)Sc1ccccc1N)/C(C#N)=C(\N)Sc1ccccc1N for me?
## Result 0.806

###

# maps each entry to its AUC of dose-response viability curve
system: 769-P; assay: AUC of dose-response viability curve, drug alone (arbitrary (AUC of normalised viability)); higher = less growth inhibition; details: treatment: drug alone; 5 days

These recorded examples may help you get a feel for the data.
Cc1cc2c(F)c(Oc3ncnn4cc(OC[C@@H](C)O)c(C)c34)ccc2[nH]1	3.39
COc1cccc(-c2cc(=O)c3ccccc3o2)c1N	3.39
O=C(Nc1ccc(OC(F)(F)F)cc1)c1sccc1NCc1ccnc2ccccc12 [OSI-930]	3.39
C#Cc1cccc(Nc2ncnc3cc(OCCOC)c(OCCO)cc23)c1	2.71
COC1=CC(c2cc3ccccc3[nH]2)=N/C1=C\c1[nH]c(C)cc1C.CS(=O)(=O)O [Obatoclax mesylate (GX15-070)]	2.01
COc1cc(Nc2ncc(F)c(Nc3ccc4c(n3)NC(=O)C(C)(C)O4)n2)cc(OC)c1OC.O=S(=O)(O)c1ccccc1 [R406]	3.1
CCOc1cc2ncc(C#N)c(Nc3ccc(F)c(Cl)c3)c2cc1NC(=O)/C=C/CN(C)C [Pelitinib (EKB-569)]	2.02
CNC(=O)c1cc(Oc2ccc(NC(=O)Nc3ccc(Cl)c(C(F)(F)F)c3)c(F)c2)ccn1 [Regorafenib (BAY 73-4506)]	3.39

## Task Can you look up the measured AUC of dose-response viability curve of Nc1cccc2c1C(=O)N(C1CCC(=O)NC1=O)C2=O (stereo not given) [Pomalidomide] for me?
## Result 3.35

## Task Can you look up the measured AUC of dose-response viability curve of O=C1NC(=O)/C(=C/c2ccc3nccc(-c4ccncc4)c3c2)S1 for me?
## Result 2.87

###

tested on: SN12C; test: GI50 of drug in presence of dasatinib; higher = less potent; conditions: treatment: drug + dasatinib (fixed dose, not stated); 5 days
Field: label. Allowed values: Y (GI50 of drug < 1 µM) or N (GI50 of drug >= 1 µM).

For orientation, consider the following solved cases.
C#Cc1cccc(Nc2ncnc3cc(OCCOC)c(OCCO)cc23)c1 + Cc1nc(Nc2ncc(C(=O)Nc3c(C)cccc3Cl)s2)cc(N2CCN(CCO)CC2)n1	N
Cn1cnc2c(F)c(Nc3ccc(Br)cc3Cl)c(C(=O)NOCCO)cc21 [AZD6244 (Selumetinib)] + Cc1nc(Nc2ncc(C(=O)Nc3c(C)cccc3Cl)s2)cc(N2CCN(CCO)CC2)n1	N
CN1CCN(CCOc2cc(OC3CCOCC3)c3c(Nc4c(Cl)ccc5c4OCO5)ncnc3c2)CC1 [Saracatinib (AZD0530)] + Cc1nc(Nc2ncc(C(=O)Nc3c(C)cccc3Cl)s2)cc(N2CCN(CCO)CC2)n1	N
OCc1ccc(-c2ccc(-c3ccc(CO)s3)o2)s1 + Cc1nc(Nc2ncc(C(=O)Nc3c(C)cccc3Cl)s2)cc(N2CCN(CCO)CC2)n1	Y
CO[C@H]1C[C@@H]2CC[C@@H](C)[C@@](O)(O2)C(=O)C(=O)N2CCCC[C@H]2C(=O)O[C@H]([C@H](C)C[C@@H]2CC[C@@H](OCCO)[C@H](OC)C2)CC(=O)[C@H](C)/C=C(\C)[C@@H](O)[C@@H](OC)C(=O)[C@H](C)C[C@H](C)/C=C/C=C/C=C/1C [Everolimus (RAD001)] + Cc1nc(Nc2ncc(C(=O)Nc3c(C)cccc3Cl)s2)cc(N2CCN(CCO)CC2)n1	N
CCn1cc(-c2ccnc3[nH]c(-c4cccc(CN(C)C)c4)cc23)c(-c2ccc(NC(=O)N(C)C)cc2)n1 + Cc1nc(Nc2ncc(C(=O)Nc3c(C)cccc3Cl)s2)cc(N2CCN(CCO)CC2)n1	Y
CC(=O)c1c(C)c2cnc(Nc3ccc(N4CCNCC4)cn3)nc2n(C2CCCC2)c1=O.Cl + Cc1nc(Nc2ncc(C(=O)Nc3c(C)cccc3Cl)s2)cc(N2CCN(CCO)CC2)n1	N
FC(F)(F)c1ccc(/C=C/c2nc(COc3ccc(CCCCn4ccnn4)cc3)co2)cc1 [Mubritinib (TAK 165)] + Cc1nc(Nc2ncc(C(=O)Nc3c(C)cccc3Cl)s2)cc(N2CCN(CCO)CC2)n1	Y
CS(=O)(=O)O.O=C(Nc1cccc(Cl)c1)Nc1ncc(CCNc2ncnc3ccsc23)s1 [SNS-314] + Cc1nc(Nc2ncc(C(=O)Nc3c(C)cccc3Cl)s2)cc(N2CCN(CCO)CC2)n1	Y
Cc1cccc(-c2nc(C(C)(C)C)[nH]c2-c2ccc3nccnc3c2)n1 + Cc1nc(Nc2ncc(C(=O)Nc3c(C)cccc3Cl)s2)cc(N2CCN(CCO)CC2)n1	N

## Task Input CC[C@H](Nc1ncnc2[nH]cnc12)c1nc2cccc(F)c2c(=O)n1-c1ccccc1 [CAL-101 (GS-1101)] + Cc1nc(Nc2ncc(C(=O)Nc3c(C)cccc3Cl)s2)cc(N2CCN(CCO)CC2)n1 ; condition: GI50 of drug strictly below 1 µM. Does it hold?
## Result N

## Task Input COc1cc2c(Oc3ccc4[nH]c(C)cc4c3F)ncnc2cc1OCCCN1CCCC1 [Cediranib (AZD2171)] + Cc1nc(Nc2ncc(C(=O)Nc3c(C)cccc3Cl)s2)cc(N2CCN(CCO)CC2)n1 ; condition: GI50 of drug strictly below 1 µM. Does it hold?
## Result Y

## Task Input Cc1ccc(C(=O)Nc2cccc(C(F)(F)F)c2)cc1Nc1nc(-c2cccnc2)nc2c1cnn2C [NVP-BHG712] + Cc1nc(Nc2ncc(C(=O)Nc3c(C)cccc3Cl)s2)cc(N2CCN(CCO)CC2)n1 ; condition: GI50 of drug strictly below 1 µM. Does it hold?
## Result N

## Task Input CCOc1ccn(-c2ccc(F)cc2)c(=O)c1C(=O)Nc1ccc(Oc2ccnc(N)c2Cl)c(F)c1 + Cc1nc(Nc2ncc(C(=O)Nc3c(C)cccc3Cl)s2)cc(N2CCN(CCO)CC2)n1 ; condition: GI50 of drug strictly below 1 µM. Does it hold?
## Result N

## Task Input OCCn1cc(-c2ccc3c(c2)CC/C3=N\O)c(-c2ccncc2)n1 [GDC-0879] + Cc1nc(Nc2ncc(C(=O)Nc3c(C)cccc3Cl)s2)cc(N2CCN(CCO)CC2)n1 ; condition: GI50 of drug strictly below 1 µM. Does it hold?
## Result N

## Task Input N#Cc1c(O)c2c(-c3ccc(-c4ccccc4O)cc3)csc2[nH]c1=O + Cc1nc(Nc2ncc(C(=O)Nc3c(C)cccc3Cl)s2)cc(N2CCN(CCO)CC2)n1 ; condition: GI50 of drug strictly below 1 µM. Does it hold?
## Result N

## Task Input CNC(=O)c1cc(Oc2ccc(NC(=O)Nc3ccc(Cl)c(C(F)(F)F)c3)cc2)ccn1.Cc1ccc(S(=O)(=O)O)cc1 [Sorafenib (Nexavar)] + Cc1nc(Nc2ncc(C(=O)Nc3c(C)cccc3Cl)s2)cc(N2CCN(CCO)CC2)n1 ; condition: GI50 of drug strictly below 1 µM. Does it hold?
## Result N
